Tested on: SF-539 CNS
protocol.notes: NCI-60 one-dose screen, 48 h
condition.notes: 10 µM unless noted
The panel holds about 83,000 compounds, 20% with a hit somewhere; the sample as a whole holds those more often. Activity calls are given as the source filed them. The calls were made as follows: active = growth percent below 10; inactive = the rest.
Outcome codes: active, inactive

- compound: "O=C1/C(=C\\c2c[nH]c3ccccc23)c2ccccc2N1c1c(Cl)cccc1Cl"
  class.assignment: "active"
- compound: "Cc1ccc(N(C(=O)CCc2c[nH]c3ccccc23)[C@H](C(=O)Nc2ccc(Cl)cc2)c2cccc([N+](=O)[O-])c2)cc1"
  class.assignment: "inactive"
- compound: "CC1=C([Se]CC(OC(=O)CC[Se]c2ccccc2)C(=O)NCCCCCC(=O)OCc2ccccc2)C(=O)c2ccccc2C1=O (centres undefined)"
  class.assignment: "inactive"
- compound: "COc1cc(OC)cc(C2CC(=O)Nc3c2c(C)nn3-c2nc3ccccc3[nH]2)c1 (centres undefined)"
  class.assignment: "inactive"
- compound: "CN(C)c1ccc(-c2ccc3[nH]c(=O)nc(-c4ccccc4)c3c2)cn1"
  class.assignment: "inactive"
- compound: "COc1ccc(-c2nc(SC(C)C)nc(NNC(N)=S)c2C#N)cc1"
  class.assignment: "inactive"
- compound: "CCCCC1CCCCN1C(=O)OCC (centres undefined)"
  class.assignment: "inactive"
- compound: "Cc1ccccc1NC(=O)N/C(N)=N/c1nc(-c2cccc([N+](=O)[O-])c2)cs1"
  class.assignment: "inactive"
- compound: "COc1cc(/C=C/C(=O)N2CCN(C(=O)c3cc(OC)c(OC)c(OC)c3)CC2)ccc1OCCCN1C(=O)c2cccc3cccc(c23)C1=O"
  class.assignment: "inactive"
- compound: "CCn1c(C)nc2cc(C(N)=O)ccc21"
  class.assignment: "inactive"
- compound: "COc1ccc2c(c1)O/C(=C\\c1cccc(OCC(=O)Nc3nc(C)c(C)s3)c1)C2=O"
  class.assignment: "active"
- compound: "COC(=O)c1c2c(c(C)[n+]([O-])c1C)C(=O)C(NCc1ccc(F)cc1)=CC2=O"
  class.assignment: "active"
- compound: "CCCCN(CCCC)CC(C)(C)C(O)c1ccc(OC)c2ccccc12 (centres undefined)"
  class.assignment: "inactive"
- compound: "COc1ccc2c(c1)C(=O)/C(=C/c1cccc(OCC(=O)Nc3nc(C)c(C)s3)c1)O2"
  class.assignment: "active"
- compound: "O=C(/C=C/c1c(Cl)nc2sccn12)c1ccc(F)c(F)c1"
  class.assignment: "inactive"
- compound: "NCCCNc1nc2ccccc2c2c(=O)c3cccc(Cl)c3sc12"
  class.assignment: "inactive"
- compound: "O=C(CSc1nccc(Nc2ccc(S(=O)(=O)Nc3nccs3)cc2)n1)c1ccc(F)cc1"
  class.assignment: "inactive"
- compound: "Cc1ccc(/C=C/c2c(C(=O)/C=C/c3ccc(Cl)cc3)c(C)nc3ccccc23)cc1"
  class.assignment: "active"
- compound: "Cc1ccc(NCCN(C)C)c2c(=O)c3ccccc3sc12"
  class.assignment: "inactive"
- compound: "COC(=O)/C=C1\\S/C(=N\\NS(=O)(=O)c2ccc(C)cc2)N(c2ccccc2)C1=O"
  class.assignment: "inactive"
- compound: "C=CCn1c(C)nc2cc(Nc3nc(N4CCCC4)nc4ccccc34)ccc21"
  class.assignment: "inactive"
- compound: "CCc1ccccc1-n1c(-c2ccc(Cl)cc2)cc(-c2ccc(OC)cc2)c(C#N)c1=O"
  class.assignment: "inactive"
- compound: "Cc1ccc(C(=O)CSc2nc(-c3ccc(Br)cc3)c(C#N)c(=O)[nH]2)cc1"
  class.assignment: "inactive"
- compound: "C=C(C)[C@@H]1CC[C@]2(C(=O)NC3CCCCC3)CC[C@]3(C)[C@H](CC[C@@H]4[C@@]5(C)CCCNC(C)(C)[C@@H]5CC[C@]43C)[C@@H]12"
  class.assignment: "inactive"
- compound: "COc1nc2c(c(=O)n1C)CN(c1ccccc1)C(=O)CN2C"
  class.assignment: "inactive"
- compound: "COc1ccc(C2=Nc3c(N)ncnc3NC(c3ccc4c(c3)OCO4)C2)cc1 (centres undefined)"
  class.assignment: "inactive"
- compound: "COc1cccc(-c2nc3sccn3c2/C=C/C(=O)c2ccc(C(F)(F)F)cc2)c1"
  class.assignment: "inactive"
- compound: "NC1=NCc2nc3ccccc3c(=O)n2C1"
  class.assignment: "inactive"
- compound: "CCCCCCCCCOc1c(OC)cc(C2CC(=O)Nc3c2c(C)nn3-c2nc3ccccc3[nH]2)cc1OC (centres undefined)"
  class.assignment: "active"
- compound: "CC1OC(O[C@H]2/C=C/C=C/C=C/C=C/C=C/C=C/C=C/[C@H](C)[C@@H](O)[C@@H](C)[C@H](C)OC(=O)CC(O)CC(O)CCC(O)C(O)CC(O)C[C@]3(O)C[C@H](O)C(C(=O)O)C(C2)O3)C(O)[C@H](N)C1O (some centres undefined)"
  class.assignment: "inactive"
- compound: "N#C/C(=C\\c1ccc2c(c1)OCO2)n1nnc2cc(F)c(F)cc21"
  class.assignment: "inactive"
- compound: "Cc1c(C(=O)N[C@@H](Cc2ccccc2)C(=O)C(=O)NCCc2ccccc2)[nH]c2ccccc2c1=O"
  class.assignment: "inactive"
- compound: "C#Cc1cccc(NC(=O)c2ccc(NC(=O)CCl)cc2)c1"
  class.assignment: "active"
- compound: "O=c1ccn2nc3ccccc3c2[nH]1"
  class.assignment: "inactive"
- compound: "O=S(=O)(O)c1ccc(N/N=C/c2ccccc2Cl)cc1"
  class.assignment: "inactive"
- compound: "NC[C@H](O)c1ccc(O)c(O)c1"
  class.assignment: "inactive"
- compound: "Cc1cc(=O)[nH]c(N=Nc2c(O)[nH]c3ccccc23)n1"
  class.assignment: "inactive"
- compound: "COc1ccc2occ(C3=C(c4c[nH]c5ccccc45)C(=O)N(O)C3=O)c2c1"
  class.assignment: "inactive"
- compound: "O=c1c2c3c(sc2n2c(-c4cn(-c5ccccc5)nc4-c4ccc(Cl)cc4)nnc2n1Cc1ccccc1)CCCC3"
  class.assignment: "inactive"
